Biological target: MPO (Homo sapiens, UniProt P05164)
Construct: MPO from human neutrophils was obtained from Athens Research and Technology (Athens, GA); purchased Athens Research and Technology (Athens, GA); host or cells: human neutrophils (natural source)
Sequence (P05164 279-745 limits assumed): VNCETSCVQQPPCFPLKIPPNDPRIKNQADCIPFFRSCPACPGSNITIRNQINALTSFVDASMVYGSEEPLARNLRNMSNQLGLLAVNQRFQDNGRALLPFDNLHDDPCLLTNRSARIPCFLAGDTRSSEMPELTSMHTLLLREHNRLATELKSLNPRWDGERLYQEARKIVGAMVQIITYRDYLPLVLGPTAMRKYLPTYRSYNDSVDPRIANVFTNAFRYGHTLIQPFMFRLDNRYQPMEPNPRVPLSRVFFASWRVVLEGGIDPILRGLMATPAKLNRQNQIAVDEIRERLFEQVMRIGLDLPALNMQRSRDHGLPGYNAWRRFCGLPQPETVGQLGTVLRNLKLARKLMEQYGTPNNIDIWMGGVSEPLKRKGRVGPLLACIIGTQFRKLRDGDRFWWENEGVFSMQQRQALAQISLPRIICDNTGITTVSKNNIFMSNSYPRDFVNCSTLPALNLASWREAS
Sequence (P05164 165-273 limits assumed): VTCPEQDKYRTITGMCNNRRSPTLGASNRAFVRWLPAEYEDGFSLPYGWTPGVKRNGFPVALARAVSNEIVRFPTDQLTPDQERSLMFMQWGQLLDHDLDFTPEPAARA
Test: MPO-dependent HOCl generation (summary values)
Format: biochemical
Conditions: abstract summary; read-out: IC50 toward MPO-dependent HOCl generation
Observation type: IC50 (µM)
Output spec: scalar in µM, unitless text.

# IC50 (molecule: CC(=O)Nc1ccc(O)cc1 [Acetaminophen, N-(4-hydroxyphenyl)acetamide] ) is 140

----------
The following compounds are shown together with reported IC50 values.
Target: MPO from human neutrophils (Homo sapiens, UniProt P05164)
Construct: MPO from human neutrophils was obtained from Athens Research and Technology (Athens, GA); purchased Athens Research and Technology (Athens, GA); host or cells: human neutrophils (natural source)
Experiment: Taurine N-chloramine/TMB assay of MPO-derived HOCl
Type: biochemical
Details: read-out: IC50, inhibition of MPO chlorinating activity
Output spec: scalar in µM, unitless text.

CC(=O)Nc1ccc(B(O)O)cc1    420

Okay, now this compound:
Noted IC50 for CC(=O)Nc1ccc(O)cc1 [Acetaminophen, N-(4-hydroxyphenyl)acetamide] , tested on MPO from human neutrophils (Homo sapiens, UniProt P05164): 153

----------
Test: Spontaneous conversion of AMB-OH into acetaminophen (UPLC)
Type: physicochemical
Conditions: phosphate buffer, pH 7.4, pH 7.4, room temperature; read-out: half-life time (converted)
Observation type: half-life (h)
Output spec: scalar in h, unitless text.

# half-life (compound: CC(=O)Nc1ccc(OCc2ccc(O)cc2)cc1 [AMB-OH] ) is 1

----------
Target: MPO (Homo sapiens, UniProt P05164)
Construct: MPO from human neutrophils was obtained from Athens Research and Technology (Athens, GA); purchased Athens Research and Technology (Athens, GA); host or cells: human neutrophils (natural source)
Assay: MPO-dependent HOCl generation (summary values)
Assay type: biochemical
Settings: rounded value in discussion; read-out: IC50 for the inhibition of MPO
Observation type: IC50 (µM)
Output spec: scalar in µM, unitless text.

# IC50 (compound: CC(=O)Nc1ccc(O)cc1 [Acetaminophen, N-(4-hydroxyphenyl)acetamide] ) is 150
